- Test system: Simian virus 40
- test.details: Antiviral activity against Simian virus 40 PML2 DAR in african green monkey BSC1 cells assessed as reduction of virus-induced cytopathogenicity
- Assay type: functional, organism-based
- measurement.setup: Betapolyomavirus macacae, BSC-1
endpoint.label: EC50 (µM)

These solved cases illustrate the format of a correct answer.
molecule: Nc1ncnc2c1ncn2CCOCP(=O)(O)O [ADEFOVIR]
experimental.system: Simian virus 40
unit.label: µM
EC50: 126
--
molecule: Nc1cc(OC[C@@H](CO)OCP(=O)(O)O)nc(N)n1
experimental.system: Simian virus 40
unit.label: µM
EC50: 112

P. CCCCCCCCCCCCCCCCOCCOP1(=O)CO[C@@H](Cn2cnc(N)nc2=O)CO1 (some centres not stated)
Q. Nc1ncn(C[C@H]2COP(=O)(O)CO2)c(=O)n1
Which item exceeds the other in EC50, P or Q ? Respond with the label that goes with your answer. Q
(Q: 19.1 µM, P: 0.34 µM)

A. Nc1ncnc2c1ncn2C[C@@H](CO)OCP(=O)(O)O
B. Nc1cc(OCCOCP(=O)(O)O)nc(N)n1
// pick larger EC50 from pair: A vs B Give the label under which the chosen entry appears. B
(B: 181 µM, A: 10.2 µM)

This collection of values is drawn from ChEMBL document CHEMBL1145476.
